These data points were gathered from PubChem BioAssay.

Test: viability loss in pontine glioma line – cell-based, SU-DIPG-XXV, MIPE5.0, CellTiter-Glo, qHTS, dose response (AID 1347065);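 further: cells exposed to compound for 48 hours before ATP readout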
Details: CellTiter-Glo ATP luminescence
Inconclusive results are not listed. Active and inactive are the calls of the source. Cut-off not given; nearly all actives show AC50 up to about 26 µM.
PROPERTY: AC50

1) NC(=O)c1ccc2nc(-c3ccc(C4(N)CCC4)cc3)c(-c3ccccc3)n2n1; 7.42 µM (active)

Give AC50 for all compounds that follow.
1. O=C(/C=C/c1cccc(S(=O)(=O)Nc2ccccc2)c1)NO
2. C=CC(=O)Nc1cccc(C)c1Nc1ncc2cc(-c3c(Cl)c(OC)cc(OC)c3Cl)ccc2n1
3. CC1(C)CCC2(CC1)N[C@@H](C(=O)N[C@@H]1CC[C@@H](C(N)=O)OC1)[C@H](c1ccnc(Cl)c1F)[C@]21C(=O)Nc2cc(Cl)ccc21

OUT:
["0.742 µM (active)", "9.34 µM (active)", "16 µM (active)"]
